ASSAY_SYSTEM: COX-2 human recombinant enzyme (Homo sapiens)
Sequence (P35354 18-604): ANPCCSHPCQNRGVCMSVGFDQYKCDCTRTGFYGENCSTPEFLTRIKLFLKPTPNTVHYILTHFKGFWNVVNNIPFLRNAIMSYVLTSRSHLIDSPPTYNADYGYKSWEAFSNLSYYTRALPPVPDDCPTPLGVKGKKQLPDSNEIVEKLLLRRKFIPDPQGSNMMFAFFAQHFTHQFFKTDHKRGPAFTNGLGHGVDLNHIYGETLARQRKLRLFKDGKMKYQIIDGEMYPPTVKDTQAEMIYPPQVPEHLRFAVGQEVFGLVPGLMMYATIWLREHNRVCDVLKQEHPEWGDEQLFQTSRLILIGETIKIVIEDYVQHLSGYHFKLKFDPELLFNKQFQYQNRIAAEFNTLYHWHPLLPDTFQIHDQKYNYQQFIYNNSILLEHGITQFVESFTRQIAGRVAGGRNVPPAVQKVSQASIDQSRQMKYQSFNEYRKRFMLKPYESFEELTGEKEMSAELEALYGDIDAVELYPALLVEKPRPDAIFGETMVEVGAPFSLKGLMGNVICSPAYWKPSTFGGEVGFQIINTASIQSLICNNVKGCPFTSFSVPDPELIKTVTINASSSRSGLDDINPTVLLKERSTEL
ASSAY_NOTES: Fluorometric COX-2 inhibitor screening kit
MEASUREMENT_PARAMETERS: IC50 ± standard error
READOUT: IC50

input: Item COC(=O)C(Cc1c[nH]cn1)NC(=O)c1cc(C(C)(C)C)c(O)c(C(C)(C)C)c1 (centres unmarked) with COX-2 human recombinant enzyme (Homo sapiens) - IC50?
output: > 100 µM

More entries:
input: Could you share what IC50 was measured for CC(NC(=O)NO)c1ccc(-c2ccccc2)c(F)c1 (centres unmarked) , tested on COX-2 human recombinant enzyme (Homo sapiens)?
output: 6.72 µM

input: Now consider C=CCNC(=O)c1cc(C(C)(C)C)c(O)c(C(C)(C)C)c1 and answer again.
output: 6.89 µM

input: Further, for CC(C)(C)c1cc(C=C2SC(=S)N(N)C2=O)cc(C(C)(C)C)c1O ?
output: > 100 µM

input: Same read-out for COC(=O)CNC(=O)c1cc(C(C)(C)C)c(O)c(C(C)(C)C)c1 ?
output: 10.6 µM

Values compiled from paper PMC10142505.
